Measured IC50 by item
Tested on: intracellular amastigote form of L. donovani parasite in differentiated THP1 cells
test.protocol: Parasite rescue and transformation assay (macrophage internalized amastigotes)
Format: cell-based, Leishmania donovani
setup.conditions: Leishmania donovani, THP-1; parasite rescue and transformation assay; read-out: IC50 anti-leishmanial activity, intracellular amastigote
Protocol: This assay is based on the previously published protocol by Jain et al. (35). A 3-day old culture of THP1 cells in the exponential phase was diluted with RPMI medium to 2.5×10^5 cells/ml. PMA was added to final a concentration of 25 ng/ml. PMA treated culture was dispensed in clear flat bottom culture plates and incubated overnight at 37° C. in a 5% CO2 incubator. […] Standard fluorescence was measured on a Fluostar Galaxy fluorometer (BMG LabTechnologies) at 544 nm ex, 590 nm em. […]

| compound | assayed.target | measure.unit | operator.symbol | IC50 |
| --- | --- | --- | --- | --- |
| C[C@@H]1CC[C@H]2[C@@H](C)C(=O)O[C@@H]3O[C@@]4(C)CC[C@@H]1[C@]32OO4 [artemisinin] | intracellular amastigote form of L. donovani parasite in differentiated THP1 cells | µM | > | 35.4 |
| C[C@H]1[C@@H](OCC(CO[C@H]2O[C@@H]3O[C@@]4(C)CC[C@H]5[C@H](C)CC[C@@H]([C@H]2C)[C@@]35OO4)N2CCOCC2)OC2O[C@@]3(C)CC[C@H]4[C@H](C)CC[C@@H]1[C@@]24OO3 (stereo partly shown) [Dimer Morpholine] | intracellular amastigote form of L. donovani parasite in differentiated THP1 cells | µM | = | 0.007 |
| C[C@@H]1[C@H](O)[C@@H](C)/C=C/C=C/C=C/C=C/C=C/C=C/C=C/[C@H](O[C@@H]2O[C@H](C)[C@@H](O)[C@H](N)[C@@H]2O)C[C@@H]2O[C@](O)(C[C@@H](O)C[C@@H](O)[C@H](O)CC[C@@H](O)C[C@@H](O)CC(=O)O[C@H]1C)C[C@H](O)[C@H]2C(=O)O [amphotericin, amphotericin B] | intracellular amastigote form of L. donovani parasite in differentiated THP1 cells | µM | = | 0.062 |
| N=C(N)c1ccc(OCCCCCOc2ccc(C(=N)N)cc2)cc1 [pentamidine] | intracellular amastigote form of L. donovani parasite in differentiated THP1 cells | µM | = | 0.545 |
